Entry source: PubChem BioAssay (NCI)

# System: MCF7 breast
# testDescription: NCI-60 one-dose screen, 48 h
# experimentalConditions: 10 µM unless noted
About 83,000 compounds went through this panel and 20% of them were active in at least one assay; those are over-represented in the sample as a whole. The source made the active and inactive calls. Rule for the calls: active = growth percent below 10; inactive = the rest.
Give your call using only these classes: Y for active, N for inactive

# lookup: test call for CC1CCNC(C)C1 (centres undefined) N

# lookup: test call for `O=C1c2cc3c(cc2-c2c1c1ccc(F)cc1c(=O)n2C[C@H](O)[C@@H](O)[C@H](O)CO)OCO3` Y

# lookup: test call for `O=c1oc2c(C(F)(F)F)cccc2cc1-c1csc(Nc2ccc(OCCF)cc2)n1` N

# lookup: test call for `O=C1NC(=S)NC(=O)C1CC(=O)n1c(-c2ccccc2)nc2ccccc21` N

# lookup: test call for `COc1cc2c(cc1-c1c(C)noc1C)ncc1nc(C3CCC(F)(F)CC3)n([C@H](C)COC(F)F)c12` N

# lookup: test call for `CC(=O)OC[C@H]1O[C@H](OC(C)=O)[C@H](NC(=O)/C=C/CCl)[C@@H](OC(C)=O)[C@@H]1OC(C)=O` N

# lookup: test call for `Cc1cc(N2CCOCC2)nc(N[C@@H]2CCC[C@H](Nc3ccnc4cc(Cl)ccc34)C2)n1` Y

# lookup: test call for `C=CC(=O)Nc1cccc(-c2nc(SC)nc(NCCc3ccc(OC)c(OC)c3)c2C#N)c1` N

# lookup: test call for `O=C(/C=C/c1cc(CN2CCOCC2)c(O)c2ncccc12)c1cc(CN2CCOCC2)c(O)c2ncccc12` N

====

# Test system: T-47D breast
# testDescription: NCI-60 one-dose screen, 48 h (100 = growth as untreated, 0 = no growth, -100 = all killed)
# experimentalConditions: 10 µM unless noted
This is part of a sample that, as a whole, favours compounds with a hit. Of some 83,000 tested, about 20% had one in any assay.
observable: growth (%)
The reply should be a number in %, with the unit left off.

Please look up its growth: `O=C(CN(C(=O)Cn1c(=O)n2nnnc2c2ccccc21)c1ccccc1C(F)(F)F)Nc1ccc(C(F)(F)F)cc1` 101

Please look up its growth: `Cn1cc(-c2nonc2-c2cn(C)c3ccc(F)cc23)c2cc(F)ccc21` 64.7

Please look up its growth: `CCOC(=O)c1c(C(=O)OCC)c2cc(-c3ccn4c(C(=O)c5ccccc5)c(C(=O)OCC)c(C(=O)OCC)c4c3)ccn2c1C(=O)c1ccccc1` 82.5

Please look up its growth: `Cc1cc(N2CCN(c3ccnc4cc(Cl)ccc34)CC2)nc(N2CCOCC2)n1` 46.9

Please look up its growth: `O=C(CN1C(=O)/C(=C/c2ccc(Cl)cc2)SC1=S)NCCCN1CCOCC1` 84.3

Please look up its growth: `CC(C)(O)c1cn(CCCCN2C(=O)C(=O)c3ccccc32)nn1` 99.5

Please look up its growth: `COc1ccccc1NS(=O)(=O)c1ccc2oc(SC(C)C)nc2c1` 67.2

Please look up its growth: `COc1ccc(NC(=O)c2ccc(/C=C/C(=O)c3ncc[nH]3)cc2)cc1` 68.5

Please look up its growth: `COCCNc1ccc2c3c(cccc13)C(=O)N(CCN(C)C)C2=O` -10.9

Please look up its growth: `O=C1c2ccccc2OC=C(c2ccccc2)N1CCCCNc1ccc(S(=O)(=O)Nc2ncccn2)cc1` 88.8

Please look up its growth: `COc1cccc(-c2nc3sccn3c2-c2ccnc(NCCCNS(=O)(=O)c3cccc(Cl)c3)c2)c1` -4.56

Please look up its growth: `Cc1cc2nc3[nH]c4ccccc4c3nc2cc1C` 58.9

Please look up its growth: `Cc1ncc(C(=O)Nc2ccc(CN3CCN(C)CC3)c(C(F)(F)F)c2)cc1C#Cc1cnc2cccnn12` 40

Please look up its growth: `N#Cc1nnn(-c2ccc(S(N)(=O)=O)cc2)c1NC(=O)CCl` 95.2

Please look up its growth: `c1ccc(Cn2cc(-c3nc4ccccc4s3)c3cccnc32)cc1` 94

Please look up its growth: CCOc1cc2c(cc1OCC)C(c1cc(OC)c(O)cc1Cl)NCC2 (configuration not stated) 85.4

Please look up its growth: `O=c1cc(CSc2nnc(SCc3cc(=O)oc4c3ccc3ccccc34)o2)c2ccc3ccccc3c2o1` 78.6

Please look up its growth: `COc1cc2c(cc1-c1c(C)noc1C)ncc1nc(C3CCCC3)n([C@H](C)COC(F)F)c12` 29.7

Please look up its growth: CC(C)(C)N1CCC1CN (configuration not stated) 96.3

Please look up its growth: `Nc1nc2ncc(CCNc3ccc(C(=O)O)cc3)nc2c(=O)[nH]1` 115

Please look up its growth: `O=C(C(=O)c1ccc2c(c1)OCO2)c1ccc2c(c1)OCO2` 113

Please look up its growth: `Clc1ccc2c(NCCCCNc3nc(N4CCOCC4)nc4ccccc34)ccnc2c1` 8.21

Please look up its growth: `O=C1C=C(OCC=C(Cl)Cl)C(=O)c2ccccc21` 38.9

Please look up its growth: COc1cc2c(cc1OC)C(Sc1ccc(SC)cc1)c1c(nc(N)c(C#N)c1N)O2 (configuration not stated) -47.1

Please look up its growth: COc1cccc2c1C(=O)c1c(O)c3c(c(O)c1C2=O)C[C@](O)(C(=O)CO)C[C@H]3O[C@@H]1C[C@@H](NC(=O)CCCN(C)C2(c3ccc(F)cc3)CC3CCC2C3)[C@H](O)[C@@H](C)O1 (some centres not stated) 81.2

Please look up its growth: `CCOC(=O)c1sc2nc(-c3cccc(O)c3)nc(N3CCOCC3)c2c1C` 5.33

Please look up its growth: `CN1CCN(c2ccc3nc(-c4ccc(OCCCCN5CCN(CCCCN6C(=O)c7cccc8cccc(c78)C6=O)CC5)cc4)[nH]c3c2)CC1` 36.1

Please look up its growth: `N#CCCN=Nc1c(O)[nH]c2ccc([N+](=O)[O-])cc12` 93.1

Please look up its growth: `C=C(C)[C@@H]1CC[C@]2(C(=O)OC)CC[C@]3(C)[C@H](CC[C@@H]4[C@@]5(C)C/C(=C/c6cccc(I)c6)C(=O)C(C)(C)[C@@H]5CC[C@]43C)[C@@H]12` 93.6

Please look up its growth: `Cn1cc(-c2nonc2-c2cn(C)c3ccc(F)cc23)c2ccccc21` 37.3

Please look up its growth: `CN(C)[C@@H]1C(=O)C(C(=O)NCc2nc3[nH]cnc(=S)c3[nH]2)=C(O)[C@@]2(O)C(=O)C3=C(O)c4c(O)cccc4[C@@](C)(O)[C@H]3C[C@@H]12` 40.4

Please look up its growth: `O=c1ccccc(-c2ccc(Br)cc2)c1O` 26.7

Please look up its growth: `Cc1oc(-c2ccc(Cl)cc2Cl)cc1C(=O)Nc1nccs1` 70.3

Please look up its growth: CCOc1cc2ncc(C#N)c(Nc3ccc(F)c(Cl)c3)c2cc1NC(=O)CC1CCSS1 (configuration not stated) -48.4

Please look up its growth: `O=S(=O)(Nc1ccc(OC(F)F)cc1)c1ccc(-c2cnc(C3CC3)o2)cc1` 48.3

Please look up its growth: `O=C(CCl)Oc1ccc(-c2ccccc2)c(Br)c1` 103

Please look up its growth: CC[C@@H](C(=O)[C@@H](C)[C@@H](O)[C@H](C)[C@@H]1O[C@@H]([C@@H](CC)C(=O)O)CC[C@@H]1C)[C@H]1OC2(C=C[C@@H](O)[C@]3(CC[C@@](C)([C@H]4CC[C@](O)(CC)[C@H](C)O4)O3)O2)[C@H](C)C[C@@H]1C (some centres not stated) 27.2

====

Assignment: determine reported growth for the given compounds.
# System: M14 melanoma
# testDescription: NCI-60 one-dose screen, 48 h (100 = growth as untreated, 0 = no growth, -100 = all killed)
# experimentalConditions: 10 µM unless noted
The panel holds about 83,000 compounds, 20% with a hit somewhere; the sample as a whole holds those more often. Activity calls are given as the source filed them. How the source made its calls: active means growth percent below 10; inactive means the rest.

Please look up its growth: `CC(C)(O)c1cn(CCCCN2C(=O)C(=O)c3ccccc32)nn1` 97.7% (inactive)

Please look up its growth: `Cn1c(=O)[nH]c(=O)c2nc(CCC(=O)NCCC(=O)O)c(=O)[nH]c21` 111% (inactive)

Please look up its growth: `Cn1c(NCCc2ccc(O)c(O)c2)nc2c1c(=O)n(Cc1ccc(Cl)c(Cl)c1)c(=O)n2C` 85.6% (inactive)

Please look up its growth: `N#C/C(=C\c1ccc(-c2cc(C(F)(F)F)ccc2Cl)o1)c1nc(-c2ccco2)cs1` 99.4% (inactive)

Please look up its growth: `O=C1c2ccccc2OC=C(c2ccccc2)N1CCCCNc1ccc(S(=O)(=O)Nc2ncccn2)cc1` 99.6% (inactive)

Please look up its growth: `CN(C)S(=O)(=O)c1ccc(S(=O)(=O)Nc2cccc(Cl)c2N2CCCCC2)cc1` -35.4% (active)

Please look up its growth: `CCOc1nc(-c2ccccc2)cc2c(O)c(C(=O)O)[nH]c(=O)c12` 102% (inactive)

Please look up its growth: `Cc1cc(N[C@@H]2CCC[C@H](Nc3ccnc4cc(Cl)ccc34)C2)nc(N2CCCCCC2)n1` -89.2% (active)

Please look up its growth: `CCOC(=O)c1c(C)oc2ncnc(N3CCN(C(=S)Nc4ccccc4)CC3)c12` 104% (inactive)

Please look up its growth: Cc1ccc2c(C(C[N+](=O)[O-])c3ccco3)c(-c3ccccc3)[nH]c2c1 (configuration not stated) 7.34% (active)

Please look up its growth: `Cn1c(NCCc2ccc(O)c(O)c2)nc2c1c(=O)n(Cc1ccc(Br)cc1)c(=O)n2C` 96.5% (inactive)

Please look up its growth: Nc1n[nH]c2ccc([C@@H]3Nc4cc5c(cc4[C@H]4C6CCC(C6)[C@@H]34)C(=O)NC5)cc12 (some centres not stated) 7.72% (active)

Please look up its growth: `CN(C)CCCNc1c2ccccc2nc2ccccc12` 98% (inactive)

Please look up its growth: `COc1ccc(-n2nc(C)c3c(Nc4ccc(NC(=O)Nc5ccc(Cl)c(C(F)(F)F)c5)cc4)ncnc32)cc1` -26.9% (active)

Please look up its growth: NC(CSC(c1ccccc1)(c1ccccc1)c1ccc(Cl)cc1)C(=O)O (configuration not stated) -24.2% (active)

Please look up its growth: `Cc1cc(C)nc(SC2=C(Nc3cccc(Cl)c3)C(=O)N(Cc3ccccc3)C2=O)n1` 74.8% [30 µM] (inactive)

Please look up its growth: `CC[C@@H]1O[C@H](O[C@@H](c2cnc[nH]2)[C@H](NC(=O)c2nc([C@H](CC(N)=O)NC[C@@H](N)C(N)=O)nc(N)c2C)C(=O)N[C@H](C)[C@H](O)[C@H](C)C(=O)N[C@@H](C(=O)NCCc2nc(-c3nc(C(=O)NCCCCN=C(N)N)cs3)cs2)[C@@H](C)O)[C@H](O[C@@H]2O[C@H](CO)[C@H](O)[C@H](OC(N)=O)[C@@H]2O)[C@H](C)[C@@H]1C` 39.2% (inactive)
